From: ChEMBL document CHEMBL4251595

Provide the reported zone of inhibition at 75 µg/disc of each item.
Test system: Aspergillus niger
test name: Antifungal activity against Aspergillus niger assessed as zone of inhibition at 75 ug/well after 48 hrs by agar well diffusion method
Type: functional
stated conditions: read-out: DIZ
Answers are plain numbers, in mm.

Observe how each entry below is paired with its result.
[[record]]
compound_structure = "O=C(NS(=O)(=O)c1c(-c2ccccc2)nn(-c2ccccc2)c1-c1ccccc1)c1cccs1"
measurement_kind = "zone of inhibition at 75 µg/disc"
result_value = 16

[[record]]
compound_structure = "O=C(NS(=O)(=O)c1c(-c2ccccc2)noc1-c1ccc([N+](=O)[O-])cc1)c1ccc(Cl)s1"
measurement_kind = "zone of inhibition at 75 µg/disc"
result_value = 37

[[record]]
compound_structure = "Cc1ccc(-c2c(S(=O)(=O)NC(=O)c3cccs3)c(-c3ccccc3)nn2-c2ccccc2)cc1"
measurement_kind = "zone of inhibition at 75 µg/disc"
result_value = 15


Now take the following compound into account.
Observed zone of inhibition at 75 µg/disc on Aspergillus niger for O=C(NS(=O)(=O)c1c(-c2ccccc2)nn(-c2ccccc2)c1-c1ccc([N+](=O)[O-])cc1)c1ccc(Cl)s1 , please.
31
